Here, each record is paired with measured Percent Effect data.
- subject-of-test: AMP-activated protein kinase, AMPK (Homo sapiens) (UniProt P54646+O43741+P54619+Q9UGJ0+Q9Y478+Q13131+Q9UGI9)
- assay-remarks: AMP-dependent Kinase enzyme assay. An in vitro enzyme assay that detects ADP turnover that is directly proportional to AMPK activity. This uses naive AMPK that is activated during the assay with MK-8722
- Type: functional
- Parameters: scale not given: direction of the effect not stated beside the values
- assay-context: 30 µM
Write the answer as a number in %, unit excluded.

Past entries and their recorded results:
COc1ncccc1NC(=O)C1CCS(=O)(=O)C1 (stereo not drawn)	-1.47
CCCNC(=O)CN1CCC(C(=O)Nc2cnn(CC)c2)CC1	-9.54
COC[C@H]1CCC[C@]12CN(C(=O)NCc1ccccc1)CCO2	-4.55
CN(Cc1ccc(F)cc1)CC1(O)CCCN(CC(C)(C)C)C1=O (stereo not drawn)	-3.53
CC(C(=O)NCCOc1ccc2c(c1)OCO2)n1cncn1 (stereo not drawn)	-6.18
O=C(NCCN1CCCCCC1=O)c1n[nH]c(=O)c2ccccc12	17.8
NC(=O)CCN1CCC(C(=O)c2cc(F)ccc2F)CC1	-2.87
CCN1CCN(c2ccc(F)cc2C(C)NCc2noc(C)n2)CC1 (stereo not drawn)	-2.95

Reported Percent Effect for CC(=O)N1CCCCC1c1nc(N)ncc1-c1ccccc1 (stereo not drawn) was 9.28

Reported Percent Effect for CCN(CC)Cc1ccc(C(=O)N2CCN(CC(C)O)CC2)cc1 (stereo not drawn) was -3.46

Reported Percent Effect for Cc1noc(NC(=O)c2ccc(C)c(F)c2)n1 was 3.63

Reported Percent Effect for CC[C@@]1(O)CCN(C(=O)c2ccc(-c3cccc(F)c3)cc2)C[C@H]1O was -2.66

Reported Percent Effect for Cc1cc(CN2CCN(C(=O)NC(C)c3cccnc3)CC2)on1 (stereo not drawn) was -2.63

Reported Percent Effect for Cc1cnn(C2CN(CC(=O)Nc3cccnc3)C2)c1 was -7.32

----------
- Organism: Homo sapiens
- assay-remarks: To identify inhibition of the IFN signalling (Jak-Stat) pathway via expression of an eGFP reporter gene under the control of an IFN-stimulated response element (ISRE) containing MxA promoter.
- Format: functional
- Parameters: scale not given: direction of the effect not stated beside the values
- assay-context: 30 µM
recorded-metric: Percent Effect (%)
Write the answer as a number in %, unit excluded.

Past entries and their recorded results:
c1ncn(CC2CCCCN2Cc2csc(C3CCCC3)n2)n1 (centres undefined)	11.4
O=c1[nH]c(CN(Cc2ccco2)C2CCCC2)nc2ccccc12	26.1

Reported Percent Effect for COc1ccc(C(=O)N2CCCC(CNS(C)(=O)=O)C2)cc1F (centres undefined) was 6.39

Reported Percent Effect for CC(C)(C)c1cc(CN2CC[C@@H](NC(=O)c3cccnc3)[C@H](O)C2)n[nH]1 was 15.6

Reported Percent Effect for CN(C)C(=O)NC[C@H]1OC[C@@H]2CCN(Cc3ccoc3)C[C@@H]21 was 36.1

Reported Percent Effect for O=C(c1cn(-c2ccccc2Cl)nn1)N1CCCSCC1 was 0.244

Reported Percent Effect for O=C(O)c1ccc(F)c(S(=O)(=O)Nc2ccc(-n3cccn3)c(Cl)c2)c1 was -13.3

Reported Percent Effect for Cc1nc(N2CCCC2)nc2c1CCN(Cc1ccco1)CC2 was -2.8

Reported Percent Effect for CCc1ccc(CN2CC[C@H]3C[C@H](c4nnc(C)[nH]4)O[C@@H]3C2)o1 was 9.84

Reported Percent Effect for Cc1cc(NC(=O)CN2CCc3cnc(C)nc3C2)on1 was -5.85

Reported Percent Effect for CCCn1nc2c(cc1=O)CN(Cc1nc(CCOC)no1)CC2 was -1.9

Reported Percent Effect for O=C(NCCCn1cncn1)NCC(c1ccccc1)N1CCCC1 (centres undefined) was 6.64

Reported Percent Effect for OCC1CCCN1c1cc(N2CCc3ccccc3C2)ncn1 (centres undefined) was -3.87

Reported Percent Effect for CCn1c(CN(C)C)nnc1C1CCN(Cc2ccccc2)CC1 was 12.4

Reported Percent Effect for CCn1c(CN2CCCN(C(=O)OC)CC2)nc2c(F)cccc21 was -5.04
